# Test system: SF-295 CNS
# experiment_description: NCI-60 one-dose screen, 48 h
# conditions: 10 µM unless noted
This is part of a sample that, as a whole, favours compounds with a hit. Of some 83,000 tested, about 20% had one in any assay. Calls of active or inactive are those of the source. How the source made its calls: active means growth percent below 10; inactive means the rest.
Choose the fitting class; nothing outside active, inactive is accepted.

// below: answered compounds
Qu. Each compound tested received a call. Report the one for COc1ccc(S(=O)(=O)Nc2cc(/C=C\c3cc(OC)c(OC)c(OC)c3)cc(OC)c2OC)cc1OC .
Ans. active

Qu. Same question for COc1cc(-c2nc(-c3nc4ccccc4[nH]3)cc3c2[nH]c2ccccc23)cc(OC)c1OC please.
Ans. active

Qu. Same question for CC1Cc2c(N(C)C)ncnc2N(C)c2ccc(Cl)cc21 (stereo not given) please.
Ans. active

Qu. Same question for COc1ccc(-c2nc(-c3nc4ccc(F)cc4[nH]3)cc3c2[nH]c2ccccc23)cc1 please.
Ans. inactive

Qu. Same question for CCCCCC/C=C\CCCCCCCCOc1ccc(CCOP(=O)(O)OCC[N+](C)(C)C)cc1 please.
Ans. inactive

New cases:
Qu. Each compound tested received a call. Report the one for COc1ccc2c(c1)C(C)Cc1c(N(C)C)ncnc1N2C (stereo not given) .
Ans. active

Qu. Same question for O=C(CN1CCN(c2cc3c(cc2F)c(=O)c(C(=O)O)cn3C2CC2)CC1)Nc1ccc(C(=O)/C=C/c2ccc(Cl)cc2)cc1 please.
Ans. inactive

Qu. Same question for CCN(Cc1ccc(CN(CC)C(=O)C(Cl)(Cl)Cl)cc1)C(=O)C(Cl)(Cl)Cl please.
Ans. inactive

Qu. Same question for CSc1ccccc1C#C/C=C\C#Cc1ccccc1N1CCCCC1=O please.
Ans. inactive

Qu. Same question for COc1ccc(Cn2c(SC)nc(=O)n(Cc3ccc(Cl)cc3)c2=O)cc1 please.
Ans. inactive
